All figures here come from patent US12522602B2.

- System: GM1 production in Jurkat cells
- test.description: cells
- Type: cell-based
- condition.label: Homo sapiens, Jurkat, 72 h
The molecules listed here are annotated with their IC50.
Report the value in nM with no unit label.

Here's what some known entries look like.
{"columns": ["molecule", "value.reported"],
 "data": [
  ["COCCOc1cccc(-c2ccc3c(c2)CC(C)(C)C3NC(=O)O[C@@H]2CN3CCC2CC3)c1 (some centres unmarked)", 7.5],
  ["CCCOc1cccc(F)c1-c1ccc2c(c1)CC(C)(C)C2NC(=O)O[C@@H]1CN2CCC1CC2 (some centres unmarked)", 64.2],
  ["CC1(C)Cc2cc(-c3cccc(OCCN4CCOCC4)c3)ccc2C1NC(=O)O[C@@H]1CN2CCC1CC2 (some centres unmarked)", 33.7],
  ["CC1(C)Cc2cc(-c3ccc(OC(F)(F)F)c(F)c3)ccc2C1NC(=O)O[C@@H]1CN2CCC1CC2 (some centres unmarked)", 37]
]}

Entry O=C(NC1CCc2cc(-c3cc(F)ccc3F)ccc21)O[C@@H]1CN2CCC1CC2 (some centres unmarked) , GM1 production in Jurkat cells data, IC50 value: 31.6

====

- System: GM1 production in Jurkat cells
- test.description: cells
- Assay type: cell-based
- condition.label: Homo sapiens, Jurkat, 72 h
measured.endpoint: log10 of IC50 (log10 of the value in nM)
Answers are given as log10 of IC50 in nM.

Here's what some known entries look like.
{"columns": ["compound", "assay.target", "log10 of IC50"],
 "data": [
  ["CC1(C)Cc2cc(-c3cc(OC(F)(F)F)ccc3Cl)ccc2C1NC(=O)O[C@@H]1CN2CCC1CC2 (stereo partly drawn)", "GM1 production in Jurkat cells", 1.43],
  ["COc1ccccc1-c1ccc2c(c1)CC(C)(C)C2NC(=O)O[C@@H]1CN2CCC1CC2 (stereo partly drawn)", "GM1 production in Jurkat cells", 1.44],
  ["COCCOc1ccc(-c2ccc3c(c2)CC(C)(C)C3NC(=O)O[C@@H]2CN3CCC2CC3)cc1 (stereo partly drawn)", "GM1 production in Jurkat cells", 0.97]
]}

Form field log10 of IC50, entry Cc1cc(-c2ccc3c(c2)CC(C)(C)C3NC(=O)O[C@@H]2CN3CCC2CC3)cc(C)c1OC(C)C (stereo partly drawn) : 1.68

Form field log10 of IC50, entry CC1(C)Cc2cc(-c3cc(F)cc(F)c3)ccc2C1NC(=O)O[C@@H]1CN2CCC1CC2 (stereo partly drawn) : 1.58

Form field log10 of IC50, entry O=C(NC1CCc2cc(-c3ccccc3C(F)(F)F)ccc21)O[C@@H]1CN2CCC1CC2 (stereo partly drawn) : 2.09

Form field log10 of IC50, entry CC1(C)Cc2cc(-c3cc4ccccc4s3)ccc2C1NC(=O)O[C@@H]1CN2CCC1CC2 (stereo partly drawn) : 1.92

Form field log10 of IC50, entry Cc1ccc(F)cc1-c1ccc2c(c1)CC(C)(C)C2NC(=O)O[C@@H]1CN2CCC1CC2 (stereo partly drawn) : 1.25

Form field log10 of IC50, entry CCOc1cc(-c2ccc3c(c2)CC(C)(C)C3NC(=O)O[C@@H]2CN3CCC2CC3)cc(C(F)(F)F)c1 (stereo partly drawn) : 1.36

Form field log10 of IC50, entry COc1ccc(-c2ccc3c(c2)CC(C)(C)C3NC(=O)O[C@@H]2CN3CCC2CC3)c(OC)n1 (stereo partly drawn) : 1.60

Form field log10 of IC50, entry CCCOc1cc(F)cc(-c2ccc3c(c2)CC(C)(C)C3NC(=O)O[C@@H]2CN3CCC2CC3)c1 (stereo partly drawn) : 1.44

Form field log10 of IC50, entry COc1cc2c(cc1-c1cccc(C(C)C)c1)CC(C)(C)C2NC(=O)O[C@@H]1CN2CCC1CC2 (stereo partly drawn) : 1.68

Form field log10 of IC50, entry CC(C)Oc1ccc(-c2ccc3c(c2)CC(C)(C)C3NC(=O)O[C@@H]2CN3CCC2CC3)cc1Cl (stereo partly drawn) : 1.26

Form field log10 of IC50, entry CC(C)c1ccc(-c2cc3c(cc2F)C(NC(=O)O[C@@H]2CN4CCC2CC4)C(C)(C)C3)cc1 (stereo partly drawn) : 0.87

Form field log10 of IC50, entry CCc1ccc(-c2ccc3c(c2)CC(CC)(CC)C3NC(=O)O[C@@H]2CN3CCC2CC3)cc1 (stereo partly drawn) : 0.43

Form field log10 of IC50, entry O=C(NC1c2ccc(-c3cccc(Cl)c3)cc2CC12CC2)O[C@@H]1CN2CCC1CC2 (stereo partly drawn) : 1.74

Form field log10 of IC50, entry CC(C)Cc1ccc(-c2cc3c(cc2F)C(NC(=O)O[C@@H]2CN4CCC2CC4)C(C)(C)C3)cc1 (stereo partly drawn) : 0.76

Form field log10 of IC50, entry O=C(NC1CCc2cc(-c3cc(Cl)ccc3Cl)ccc21)O[C@@H]1CN2CCC1CC2 (stereo partly drawn) : 1.24

Form field log10 of IC50, entry CCCCOc1ccc(-c2ccc3c(c2)CC(C)(C)C3NC(=O)O[C@@H]2CN3CCC2CC3)cc1 (stereo partly drawn) : 0.36

Form field log10 of IC50, entry CC(C)Cc1ccc(-c2ccc3c(c2)CC(C)(C)C3NC(=O)O[C@@H]2CN3CCC2CC3)cc1 (stereo partly drawn) : 1.03

Form field log10 of IC50, entry CC1(C)CC(NC(=O)O[C@@H]2CN3CCC2CC3)c2ccc(-c3cccc(Cl)c3)cc21 (stereo partly drawn) : 1.64
